# protocol-text: Thermodynamic aqueous solubility of the compound in phosphate buffered saline at pH 7.4 after overnight incubation
# Type: physicochemical
# settings: read-out: Therm_solubility
solubility thermodynamic for assorted compounds

query-smiles | reported
CCOP(=O)(OCC)C(=Cc1cc(C(C)(C)C)c(O)c(C(C)(C)C)c1)P(=O)(OCC)OCC | 200 µg/mL
CCOP(=O)(OCC)C(=Cc1ccccc1)P(=O)(OCC)OCC | > 1500 µg/mL

Sure, the documented solubility thermodynamic for `CCOP(=O)(OCC)C(=Cc1c2ccccc2cc2ccccc12)P(=O)(OCC)OCC` is > 1500 µg/mL

###

# tgt: UniProt O75469
# Sequence (O75469 whole entry): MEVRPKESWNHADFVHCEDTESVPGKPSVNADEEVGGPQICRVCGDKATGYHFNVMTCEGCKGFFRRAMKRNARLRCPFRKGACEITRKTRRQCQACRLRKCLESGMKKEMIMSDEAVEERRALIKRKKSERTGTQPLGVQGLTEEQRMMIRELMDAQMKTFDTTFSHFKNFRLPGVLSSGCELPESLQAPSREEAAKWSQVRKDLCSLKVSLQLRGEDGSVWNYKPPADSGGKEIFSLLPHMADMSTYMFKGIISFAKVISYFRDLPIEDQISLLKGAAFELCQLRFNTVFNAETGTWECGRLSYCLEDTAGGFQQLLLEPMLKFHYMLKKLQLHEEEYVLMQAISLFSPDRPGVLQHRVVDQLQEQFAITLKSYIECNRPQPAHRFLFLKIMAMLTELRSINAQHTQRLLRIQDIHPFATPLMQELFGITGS
# protocol-text: Activation of PXR in human LS180 cells assessed as P-gp induction by measuring intracellular accumulation of rhodamine 123 per ug of total protein at 5 uM preincubated for 48 hrs followed by rhodamine 123 addition after 40 mins and measured after 90 mins by fluorescence assay relative to control
# Format: cell-based
# settings: 1.5 h
Activity for assorted compounds
Value expressed in %; do not type the unit.

compound | reported
CCOP(=O)(OCC)C(Nc1ccccc1)c1ccc(Cl)cc1 (stereo not given) | 90.85
CC(C)OP(=O)(OC(C)C)C(=Cc1ccc2c(c1)OCO2)P(=O)(OC(C)C)OC(C)C | 83.27
CCOP(=O)(/C=C/c1ccc(Cl)cc1)OCC | 76.38

Sure, the documented Activity for `CC(C)OP(=O)(OC(C)C)C(=Cc1cccc2ncccc12)P(=O)(OC(C)C)OC(C)C` is 70.48

Sure, the documented Activity for `CCOP(=O)(OCC)C(=Cc1c2ccccc2cc2ccccc12)P(=O)(OCC)OCC` is 56.6

Sure, the documented Activity for `CC(C)OP(=O)(OC(C)C)C(=Cc1cccc2ccccc12)P(=O)(OC(C)C)OC(C)C` is 63.71

Sure, the documented Activity for `CCOP(=O)(OCC)C(=Cc1cc(OC)cc(OC)c1OC)P(=O)(OCC)OCC` is 68.74

Sure, the documented Activity for `CCOP(=O)(OCC)C(=Cc1cccc2ccccc12)P(=O)(OCC)OCC` is 73.66

Sure, the documented Activity for `CCOP(=O)(OCC)C(=Cc1ccccc1[N+](=O)[O-])P(=O)(OCC)OCC` is 65.69

Sure, the documented Activity for `CCOP(=O)(OCC)C(=Cc1ccc([N+](=O)[O-])o1)P(=O)(OCC)OCC` is 88.3

###

# protocol-text: AUC (0 to t) in BALB/c mouse plasma at 1 mg/kg, iv up to 24 hrs by LC-MS/MS analysis
# Type: ADME, organism-based
# Parameters: dose 1 mg/kg, time < 24 hr, route intravenous
metric: AUC(0-t) at 24 h (ng·h/mL)
Value expressed in ng·h/mL; do not type the unit.

Sure, the documented AUC(0-t) at 24 h for `CCOP(=O)(OCC)C(=Cc1ccccc1)P(=O)(OCC)OCC` is 543
